Target: GST-PSD95 PDZ domain fusion protein (human post-synaptic density protein 95 AA387-724; PDZ domains 1-3 of 3) (human, UniProt P08515 1-218 = GST)
Sequence (P08515 1-218, tags or fused parts left off): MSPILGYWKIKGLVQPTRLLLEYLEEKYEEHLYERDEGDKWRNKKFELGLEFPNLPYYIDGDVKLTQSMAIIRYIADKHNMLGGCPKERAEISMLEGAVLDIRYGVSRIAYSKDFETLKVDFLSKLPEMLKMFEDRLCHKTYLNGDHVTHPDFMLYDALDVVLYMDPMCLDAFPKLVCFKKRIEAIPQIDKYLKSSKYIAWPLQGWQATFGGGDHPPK
Assay: G assay, peptide titrated on immobilized GST-PDZ, saturation fit (apparent affinity)
Ends that are not written are not given here. * marks the point of attachment. Biotin = O=C1N[C@H]2[C@H](CS[C@H]2CCCCC(=O)*)N1
quantityKind: Kd (µM)
Give the quantity in µM, number only.

**Q:** For the binder Biotin-KDITSDSENSNFRNEIQSLV [CD95 (Apo-1/Fas) C-terminal PL peptide AA13L, biotinylated] , give its reported Kd.
**A:** 85
